Assay: rabbit clearance study (plasma antigen by ELISA)
Type: in vivo, New Zealand white rabbits
Conditions: single iv bolus, two of three rabbits, ELISA
Ends that are not written are not given here.
Attribute measured: peak plasma concentration after infusion (µg/mL)
One number for each entry, in µg/mL.

query: Can you look up the measured peak plasma concentration after infusion of RPPGF [SEQ ID NO:19, Arg-Pro-Pro-Gly-Phe] for me?
result: 60
